System: colon tumor cells (HT29)
method-notes: MTT cell growth inhibition, HT29 colon tumor cells
Format: cell-based
measurement-conditions: 3-6 days incubation, read-out: IC50 Human Colon Carcinoma
Description: The following cell culture tests were performed to test the toxicity of benzimidazole derivative compounds of the present invention on colon and melanoma tumor cells. The viability of the cells were tested by looking at MTT (3-[4,5-dimethylthiazol-2-yl]-2,5-diphenyltetrazolium bromide) reduction. MTT assay is a well known measure of cell viability. […]
pIC50: −log10 of the molar value.
Label true (1) for high-side pIC50 (at or above 5) and false (0) for low-side pIC50 (below it).

Example results:
compound	assigned-label
COC(=O)Nc1nc2ccc(C(=O)OCCCCCl)cc2[nH]1	true (1)
CCC(C)NC(=O)c1ccc2nc(NC(=O)OC)[nH]c2c1 (centres unmarked)	true (1)
CCC(C)CNC(=O)c1ccc2nc(NC(=O)OC)[nH]c2c1 (centres unmarked)	true (1)
COC(=O)Nc1nc2ccc(C(=O)OC(C)C3CC3)cc2[nH]1 (centres unmarked)	true (1)
COC(=O)Nc1nc2ccc(C(=O)OCCCCCO)cc2[nH]1	false (0)

Say whether CCC(CC)NC(=O)c1ccc2nc(NC(=O)OC)[nH]c2c1 shows pIC50 of 5 or more.
false (0)

Here is the next compound: COC(=O)Nc1nc2ccc(C(=O)OCC=CCO)cc2[nH]1
true (1)

Here is the next compound: COC(=O)Nc1nc2ccc(C(=O)OC(CF)CF)cc2[nH]1
true (1)

Here is the next compound: COC(=O)Nc1nc2c(OC(=O)c3cc(OC)c(OC)c(OC)c3)cccc2[nH]1
false (0)

Here is the next compound: COC(=O)Nc1nc2ccc(C(=O)OC(CBr)CBr)cc2[nH]1
true (1)

Here is the next compound: COC(=O)Nc1nc2ccc(C(=O)OCCF)cc2[nH]1
true (1)

Here is the next compound: COC(=O)Nc1nc2c(OC(=O)CC(C)CC(C)(C)C)cccc2[nH]1 (centres unmarked)
false (0)

Here is the next compound: COC(=O)Nc1nc2ccc(C(=O)OCCN(C)C)cc2[nH]1
false (0)

Here is the next compound: C=CCOC(=O)c1ccc2nc(NC(=O)OC)[nH]c2c1
true (1)

Here is the next compound: COC(=O)Nc1nc2ccc(C(=O)NCCCN(C)C)cc2[nH]1
false (0)

Here is the next compound: COC(=O)Nc1nc2ccc(C(=O)Nc3ccccc3O)cc2[nH]1
true (1)

Here is the next compound: COC(=O)Nc1nc2ccc(C(=O)OCC(F)(F)C(F)(F)F)cc2[nH]1
false (0)

###

Could you please report measured T/C (%) for the items listed next?
System: B16 murine melanoma
method-notes: In vivo B16 murine melanoma tumor model
Set-up: species or system B6D2F1 mice
measurement-conditions: 100 mg/kg/i.p, qd × 5; mean survival treated/control
Give bare numbers, in %.

Here are 3 compounds together with their reported answers.
compound	T/C (%)
COC(=O)Nc1nc2ccc(C(=O)OCCCCCl)cc2[nH]1	108
CCC(C)COC(=O)c1ccc2nc(NC(=O)OC)[nH]c2c1 (stereo not shown)	124
C=CCCOC(=O)c1ccc2nc(NC(=O)OC)[nH]c2c1	118

Let us move to another entry and its T/C (%).
Item COC(=O)Nc1nc2ccc(C(=O)OCC(C)CC(C)(C)C)cc2[nH]1 (stereo not shown) has what recorded T/C (%)?
75
